# System Name: Glutamate receptor ionotropic, NMDA 2D (Rattus norvegicus)
# Experimental Protocol: Ray2010 Assay 64
Measured Quantity: Ki (nM)
A number alone suffices; assume nM.

Incoming: // lookup Ki for "CC[C@H]1C[C@@H]2C[C@H]3c4[nH]c5ccc(OC)cc5c4CCN(C2)[C@@H]13"
Outgoing: 1980

###

# System Name: UniProt:P14416
# Sequence (P14416 whole entry): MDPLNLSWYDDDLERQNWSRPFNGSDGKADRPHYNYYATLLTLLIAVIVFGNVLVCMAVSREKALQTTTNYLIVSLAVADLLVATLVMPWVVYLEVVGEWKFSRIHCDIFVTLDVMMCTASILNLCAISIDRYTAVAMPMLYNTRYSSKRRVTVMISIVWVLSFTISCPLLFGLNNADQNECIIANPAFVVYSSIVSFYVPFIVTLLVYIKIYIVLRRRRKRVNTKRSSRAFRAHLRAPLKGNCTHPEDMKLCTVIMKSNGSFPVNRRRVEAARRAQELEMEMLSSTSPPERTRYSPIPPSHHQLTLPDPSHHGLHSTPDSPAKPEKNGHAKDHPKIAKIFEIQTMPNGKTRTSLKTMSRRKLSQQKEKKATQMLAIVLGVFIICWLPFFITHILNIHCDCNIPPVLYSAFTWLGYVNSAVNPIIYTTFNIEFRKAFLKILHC
# Experimental Protocol: Ray2010 Assay 74
Measured Quantity: Ki

- Compound: "COc1cc(CC(C)N)cc(OC)c1OC (stereo unspecified)"
  Ki: "> 10 µM"
- Compound: "CC[C@H]1C[C@@H]2C[C@H]3c4[nH]c5ccc(OC)cc5c4CCN(C2)[C@@H]13"
  Ki: "> 10 µM"
- Compound: "CNC(C)Cc1ccc2c(c1)OCO2 (stereo unspecified)"
  Ki: "> 10 µM"
- Compound: "CN(C)CCc1c[nH]c2ccccc12"
  Ki: "> 10 µM"
- Compound: "COc1cc(CC(C)N)c(OC)cc1C (stereo unspecified)"
  Ki: "> 10 µM"

Incoming: // lookup Ki for CCSc1cc(OC)c(CC(N)CC)cc1OC (stereo unspecified)
Outgoing: > 10 µM

Incoming: // lookup Ki for "CCCN(CCC)CCc1c[nH]c2ccccc12"
Outgoing: 9.25 µM

Incoming: // lookup Ki for "COc1ccc2[nH]cc(CCN(C(C)C)C(C)C)c2c1"
Outgoing: > 10 µM

Incoming: // lookup Ki for "COc1cc(CCN)cc(OC)c1OC"
Outgoing: > 10 µM

Incoming: // lookup Ki for "CCc1[nH]c2ccc(OC)cc2c1CCN(C)C"
Outgoing: > 10 µM

###

# System Name: UniProtKB P08913
# Sequence (P08913 whole entry): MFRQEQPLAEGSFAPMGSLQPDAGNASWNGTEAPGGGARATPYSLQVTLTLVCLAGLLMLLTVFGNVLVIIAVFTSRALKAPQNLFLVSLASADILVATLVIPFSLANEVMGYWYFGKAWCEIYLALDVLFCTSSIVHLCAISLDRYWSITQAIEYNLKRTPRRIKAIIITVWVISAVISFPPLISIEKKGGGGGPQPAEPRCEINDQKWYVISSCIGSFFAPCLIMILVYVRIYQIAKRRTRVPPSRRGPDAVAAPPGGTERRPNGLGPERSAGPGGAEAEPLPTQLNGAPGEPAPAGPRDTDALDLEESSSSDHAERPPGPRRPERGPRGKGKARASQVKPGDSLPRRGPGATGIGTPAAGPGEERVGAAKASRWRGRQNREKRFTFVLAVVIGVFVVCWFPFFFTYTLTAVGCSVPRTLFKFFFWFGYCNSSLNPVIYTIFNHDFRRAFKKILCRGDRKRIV
# Experimental Protocol: Ray2010 Assay 74
Here, each record is paired with measured Ki data.
A number alone suffices; assume nM.

Worked examples, 5 compounds total:
- Compound: "COc1ccc2[nH]cc(CCN(C)C(C)C)c2c1"
  Data Value: 175
- Compound: "NCCc1c2c(c(Br)c3c1OCC3)OCC2"
  Data Value: 145
- Compound: "CNC(C)Cc1ccc2c(c1)OCO2 (configuration not stated)"
  Data Value: 2530
- Compound: "CCSc1cc(OC)c(CCN)cc1OC"
  Data Value: 730
- Compound: "CC(N)Cc1ccc2c(c1)OCO2 (configuration not stated)"
  Data Value: 1660

Incoming: Missing value: Ki, UniProtKB P08913, entry "CCCN(CCC)CCc1c[nH]c2ccccc12" . Fill in?
Outgoing: 458

###

Here, each record is paired with measured Ki data.
# System Name: 5-hydroxytryptamine receptor 1E (Homo sapiens)
# Sequence (P28566 whole entry): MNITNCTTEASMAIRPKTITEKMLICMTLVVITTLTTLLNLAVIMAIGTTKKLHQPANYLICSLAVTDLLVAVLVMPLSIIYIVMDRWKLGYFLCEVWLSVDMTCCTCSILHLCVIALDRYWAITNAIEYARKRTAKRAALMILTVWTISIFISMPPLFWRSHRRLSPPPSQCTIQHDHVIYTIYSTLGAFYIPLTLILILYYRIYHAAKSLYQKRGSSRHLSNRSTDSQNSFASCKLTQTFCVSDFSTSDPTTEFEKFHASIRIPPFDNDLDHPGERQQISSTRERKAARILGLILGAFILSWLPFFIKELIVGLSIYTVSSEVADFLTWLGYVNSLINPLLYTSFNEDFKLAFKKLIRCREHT
A number alone suffices; assume nM.

Worked examples, 3 molecules total:
- Molecule: "CCSc1cc(OC)c(CCN)cc1OC"
  Measured Quantity: "Ki"
  Result Units: "nM"
  Data Value: 415
- Molecule: "COc1cc(CC(C)N)c(OC)cc1Br (configuration not stated)"
  Measured Quantity: "Ki"
  Result Units: "nM"
  Data Value: 1430
- Molecule: "CN(C)CCc1c[nH]c2ccccc12"
  Measured Quantity: "Ki"
  Result Units: "nM"
  Data Value: 456

Incoming: // lookup Ki for COc1cc(CC(C)N)c(OC)cc1C (configuration not stated)
Outgoing: 3540

Incoming: // lookup Ki for "NCCc1c2c(c(Br)c3c1OCC3)OCC2"
Outgoing: 110

###

// values below are Ki; system is Muscarinic acetylcholine receptor M3 (Homo sapiens, UniProt P20309)
Sequence (P20309 whole entry): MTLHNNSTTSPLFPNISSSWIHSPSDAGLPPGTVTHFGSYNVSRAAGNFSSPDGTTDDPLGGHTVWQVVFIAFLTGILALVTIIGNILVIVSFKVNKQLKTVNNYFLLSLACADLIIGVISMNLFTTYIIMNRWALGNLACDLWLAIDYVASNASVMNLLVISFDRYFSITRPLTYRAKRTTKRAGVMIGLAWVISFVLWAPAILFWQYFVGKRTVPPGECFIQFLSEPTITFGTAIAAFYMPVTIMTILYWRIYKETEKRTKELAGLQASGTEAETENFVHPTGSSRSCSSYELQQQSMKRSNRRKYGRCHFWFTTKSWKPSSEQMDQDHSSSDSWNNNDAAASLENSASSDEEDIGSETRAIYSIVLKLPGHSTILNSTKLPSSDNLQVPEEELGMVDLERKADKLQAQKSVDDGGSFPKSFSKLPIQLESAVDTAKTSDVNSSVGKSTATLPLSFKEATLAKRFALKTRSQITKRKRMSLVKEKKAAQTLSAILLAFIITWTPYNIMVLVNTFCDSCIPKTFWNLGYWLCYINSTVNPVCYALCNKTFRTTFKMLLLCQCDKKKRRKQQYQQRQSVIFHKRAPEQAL

Worked examples, 2 compounds total:
- Compound: "CCSc1cc(OC)c(CC(N)CC)cc1OC (stereo not drawn)"
  Ki: "> 10 µM"
- Compound: "CN(C)CCc1c[nH]c2cccc(O)c12 [4-hydroxy-N,N-dimethyltryptamine]"
  Ki: "> 10 µM"

Incoming: Missing value: Ki, Muscarinic acetylcholine receptor M3 (Homo sapiens, UniProt P20309), entry "CCCN(CCC)CCc1c[nH]c2ccccc12" . Fill in?
Outgoing: > 10 µM

###

# System Name: 5-hydroxytryptamine receptor 1A (Homo sapiens)
# Sequence (P08908 whole entry): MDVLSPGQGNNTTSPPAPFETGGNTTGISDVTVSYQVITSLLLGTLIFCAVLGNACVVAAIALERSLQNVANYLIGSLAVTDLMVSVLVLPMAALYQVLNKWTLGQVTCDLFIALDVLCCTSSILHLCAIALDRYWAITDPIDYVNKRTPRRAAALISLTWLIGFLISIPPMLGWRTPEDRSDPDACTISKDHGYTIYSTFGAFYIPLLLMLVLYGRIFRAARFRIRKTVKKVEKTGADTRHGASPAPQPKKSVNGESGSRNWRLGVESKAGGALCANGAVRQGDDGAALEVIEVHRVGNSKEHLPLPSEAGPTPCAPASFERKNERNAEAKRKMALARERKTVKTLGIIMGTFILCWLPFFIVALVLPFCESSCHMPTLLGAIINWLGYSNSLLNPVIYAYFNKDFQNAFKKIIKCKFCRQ
# Experimental Protocol: Ray2010 Assay 74
Hi! Just check whether Ki is below 2000 nM. Below gives Fulfilled, equal or above gives Not fulfilled.

- Compound: "COC(=O)[C@@H]1C[C@H](OC(C)=O)C(=O)[C@H]2[C@@]1(C)CC[C@H]1C(=O)O[C@H](c3ccoc3)C[C@]21C"
  System Name: "5-hydroxytryptamine receptor 1A (Homo sapiens)"
  Label Class: "Not fulfilled"
- Compound: "CNC(C)Cc1ccc2c(c1)OCO2 (stereo not drawn) [mdma]"
  System Name: "5-hydroxytryptamine receptor 1A (Homo sapiens)"
  Label Class: "Not fulfilled"
- Compound: "CC[C@H]1C[C@@H]2C[C@H]3c4[nH]c5ccc(OC)cc5c4CCN(C2)[C@@H]13"
  System Name: "5-hydroxytryptamine receptor 1A (Homo sapiens)"
  Label Class: "Not fulfilled"

Incoming: Determine whether this compound shows Ki lower than 2000 nM (ties excluded): CCOc1cc(OC)c(CC(C)N)cc1OC (stereo not drawn)
Outgoing: Not fulfilled

Incoming: Determine whether this compound shows Ki lower than 2000 nM (ties excluded): COc1cc(OC)c(OC)cc1CC(C)N (stereo not drawn)
Outgoing: Not fulfilled

Incoming: Determine whether this compound shows Ki lower than 2000 nM (ties excluded): C[C@@H]1C[C@@H](C)N1C(=O)C1C=C2c3cccc4[nH]cc(c34)C[C@H]2N(C)C1 (stereo partly drawn) [ss-2c]
Outgoing: Fulfilled

Incoming: Determine whether this compound shows Ki lower than 2000 nM (ties excluded): C[C@@H]1C[C@@H](C)N1C(=O)C1C=C2c3cccc4[nH]cc(c34)C[C@H]2N(C)C1 (stereo partly drawn) [rr-2b]
Outgoing: Fulfilled

Incoming: Determine whether this compound shows Ki lower than 2000 nM (ties excluded): COc1cc(CC(C)N)cc(OC)c1OC (stereo not drawn)
Outgoing: Fulfilled

Incoming: Determine whether this compound shows Ki lower than 2000 nM (ties excluded): CCCN(CCC)CCc1c[nH]c2ccccc12 [dpt]
Outgoing: Fulfilled

Incoming: Determine whether this compound shows Ki lower than 2000 nM (ties excluded): CCSc1cc(OC)c(CC(N)CC)cc1OC (stereo not drawn)
Outgoing: Not fulfilled

Incoming: Determine whether this compound shows Ki lower than 2000 nM (ties excluded): COc1cc(CC(C)N)c(OC)cc1Br (stereo not drawn)
Outgoing: Not fulfilled

Incoming: Determine whether this compound shows Ki lower than 2000 nM (ties excluded): CCSc1cc(OC)c(CCN)cc1OC [2C-T-2]
Outgoing: Fulfilled

Incoming: Determine whether this compound shows Ki lower than 2000 nM (ties excluded): CC(N)Cc1ccc2c(c1)OCO2 (stereo not drawn)
Outgoing: Not fulfilled

###

# System Name: Nischarin (Homo sapiens, UniProt Q9Y2I1)
# Sequence (Q9Y2I1 whole entry): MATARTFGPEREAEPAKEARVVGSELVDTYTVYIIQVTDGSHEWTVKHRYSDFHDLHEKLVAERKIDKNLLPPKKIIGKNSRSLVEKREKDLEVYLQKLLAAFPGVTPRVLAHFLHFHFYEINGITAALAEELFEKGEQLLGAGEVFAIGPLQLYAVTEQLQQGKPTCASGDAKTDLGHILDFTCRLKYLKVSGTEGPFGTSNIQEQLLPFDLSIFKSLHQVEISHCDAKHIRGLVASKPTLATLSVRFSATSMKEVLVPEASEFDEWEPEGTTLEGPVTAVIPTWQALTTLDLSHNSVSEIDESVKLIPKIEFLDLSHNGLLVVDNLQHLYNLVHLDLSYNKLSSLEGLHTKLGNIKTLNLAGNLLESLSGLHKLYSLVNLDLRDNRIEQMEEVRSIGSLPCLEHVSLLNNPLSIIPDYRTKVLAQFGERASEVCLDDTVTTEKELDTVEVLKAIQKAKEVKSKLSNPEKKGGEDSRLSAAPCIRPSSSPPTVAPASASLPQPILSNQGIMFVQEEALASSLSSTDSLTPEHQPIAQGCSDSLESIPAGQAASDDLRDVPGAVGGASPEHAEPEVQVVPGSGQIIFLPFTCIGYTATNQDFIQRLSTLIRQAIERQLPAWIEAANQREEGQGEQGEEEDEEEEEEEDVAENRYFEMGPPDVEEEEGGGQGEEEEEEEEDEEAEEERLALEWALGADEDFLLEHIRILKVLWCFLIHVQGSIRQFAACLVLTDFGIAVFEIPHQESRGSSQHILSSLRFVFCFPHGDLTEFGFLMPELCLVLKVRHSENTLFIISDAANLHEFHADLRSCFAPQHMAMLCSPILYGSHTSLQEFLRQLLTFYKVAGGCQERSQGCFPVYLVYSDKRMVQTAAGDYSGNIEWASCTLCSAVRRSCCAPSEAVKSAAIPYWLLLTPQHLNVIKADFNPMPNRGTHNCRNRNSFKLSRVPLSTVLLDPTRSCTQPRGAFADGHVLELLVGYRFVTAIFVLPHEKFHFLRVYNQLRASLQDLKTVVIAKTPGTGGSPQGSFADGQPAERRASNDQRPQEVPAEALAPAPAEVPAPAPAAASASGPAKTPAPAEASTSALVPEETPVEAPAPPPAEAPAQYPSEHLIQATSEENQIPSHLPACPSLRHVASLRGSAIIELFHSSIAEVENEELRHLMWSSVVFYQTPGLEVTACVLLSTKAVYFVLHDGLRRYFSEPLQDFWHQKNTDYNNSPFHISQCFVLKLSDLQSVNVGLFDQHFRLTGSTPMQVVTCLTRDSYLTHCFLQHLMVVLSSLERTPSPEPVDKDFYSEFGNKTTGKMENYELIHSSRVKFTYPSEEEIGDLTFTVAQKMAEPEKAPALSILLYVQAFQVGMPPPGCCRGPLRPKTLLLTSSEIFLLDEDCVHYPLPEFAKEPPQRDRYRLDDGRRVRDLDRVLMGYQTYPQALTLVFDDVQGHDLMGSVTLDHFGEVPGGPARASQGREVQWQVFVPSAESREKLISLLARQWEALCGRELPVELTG
Measured Quantity: pKi
Kindly note that pKi refers to -log10 of the concentration in mol/L and answer with the value alone.

Worked examples, 2 molecules total:
- Record Smiles: "CN(C)CCc1c[nH]c2cc(F)ccc12"
  pKi: 6.05
- Record Smiles: "CN(C)CCc1c[nH]c2ccccc12"
  pKi: 6.19

Incoming: // lookup pKi for "COc1ccc2[nH]cc(CCN(C)C)c2c1"
Outgoing: 5.60

Incoming: // lookup pKi for "CC(C)N(CCc1c[nH]c2ccccc12)C(C)C"
Outgoing: 6.45

###

# System Name: Neuronal acetylcholine receptor subunit alpha-2/beta-2 (Homo sapiens, UniProt P17787+Q15822)
# Sequence (P17787 whole entry): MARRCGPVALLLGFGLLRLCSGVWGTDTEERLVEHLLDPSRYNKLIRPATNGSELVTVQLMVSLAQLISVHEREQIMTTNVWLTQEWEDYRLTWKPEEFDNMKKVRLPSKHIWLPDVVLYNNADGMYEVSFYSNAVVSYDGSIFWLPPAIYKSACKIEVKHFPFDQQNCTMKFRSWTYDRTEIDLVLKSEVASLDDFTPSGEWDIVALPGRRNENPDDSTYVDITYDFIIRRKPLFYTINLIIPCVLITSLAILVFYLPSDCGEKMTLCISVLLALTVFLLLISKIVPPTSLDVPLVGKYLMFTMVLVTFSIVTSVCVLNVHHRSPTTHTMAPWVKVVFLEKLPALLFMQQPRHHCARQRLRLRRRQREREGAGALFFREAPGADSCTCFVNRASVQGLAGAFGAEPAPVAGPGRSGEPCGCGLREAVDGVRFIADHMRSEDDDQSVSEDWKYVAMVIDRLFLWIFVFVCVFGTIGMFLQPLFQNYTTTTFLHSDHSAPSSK
# Sequence (Q15822 whole entry): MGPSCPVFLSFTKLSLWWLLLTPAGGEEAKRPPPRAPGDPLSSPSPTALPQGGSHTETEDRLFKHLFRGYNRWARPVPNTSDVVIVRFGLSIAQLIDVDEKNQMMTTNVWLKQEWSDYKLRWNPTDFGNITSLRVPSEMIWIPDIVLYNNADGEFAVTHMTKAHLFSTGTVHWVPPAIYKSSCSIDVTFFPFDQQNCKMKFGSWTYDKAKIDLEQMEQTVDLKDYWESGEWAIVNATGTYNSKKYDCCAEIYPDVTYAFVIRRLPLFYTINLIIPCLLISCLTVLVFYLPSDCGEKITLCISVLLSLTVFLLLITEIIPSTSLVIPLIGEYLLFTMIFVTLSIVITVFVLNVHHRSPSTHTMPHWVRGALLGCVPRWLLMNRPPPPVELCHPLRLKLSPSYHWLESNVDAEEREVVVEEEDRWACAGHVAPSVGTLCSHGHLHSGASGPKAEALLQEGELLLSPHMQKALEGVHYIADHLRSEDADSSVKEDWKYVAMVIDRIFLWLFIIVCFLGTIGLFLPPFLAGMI
# Experimental Protocol: Ray2010 Assay 74
Measured Quantity: Ki

- Compound: "CCc1[nH]c2ccc(OC)cc2c1CCN(C)C [2-ethyl-5-methoxy-N,N-dimethyltryptamine]"
  Ki: "> 10 µM"
- Compound: "C[C@@H]1C[C@@H](C)N1C(=O)C1C=C2c3cccc4[nH]cc(c34)C[C@H]2N(C)C1 (stereo partly drawn) [rr-2b]"
  Ki: "> 10 µM"

Shift focus to the following entry.
Incoming: // lookup Ki for "COc1ccc2[nH]c(C)c(CCN(C)C)c2c1"
Outgoing: > 10 µM
